All figures here come from ChEMBL document CHEMBL1130396.

measurementTarget: Type-1 angiotensin II receptor (Oryctolagus cuniculus)
experimentalProtocol: Relative affinity compared to the affinity of angiotensin II(Ang=100%) for Angiotensin II receptor, type 1 on rabbit aorta
Type: tissue-based
Where a SMILES comes first, the peptide text is derived from it. The star is where a group is joined. X1 = CCCCCCCCCCCCCCCC(=O)OCCC(=O)*
measuredQuantity: RA
Enter a number only.

Q. Reported RA for Type-1 angiotensin II receptor (Oryctolagus cuniculus), given CNCC(=O)N[C@@H](CCCN=C(N)N)C(=O)N[C@H](C(=O)N[C@@H](Cc1ccc(O)cc1)C(=O)N[C@H](C(=O)N[C@@H](Cc1c[nH]cn1)C(=O)N1CCC[C@H]1C(=O)N[C@H](Cc1ccccc1)C(=O)O)C(C)C)C(C)C ?
A. 174

Q. Reported RA for Type-1 angiotensin II receptor (Oryctolagus cuniculus), given CC(C)[C@H](NC(=O)[C@H](CCCN=C(N)N)NC(=O)CCO)C(=O)N[C@@H](Cc1ccc(O)cc1)C(=O)N[C@H](C(=O)N[C@@H](Cc1c[nH]cn1)C(=O)N1CCC[C@H]1C(=O)N[C@@H](Cc1ccccc1)C(=O)O)C(C)C ?
A. 7.95

Q. Reported RA for Type-1 angiotensin II receptor (Oryctolagus cuniculus), given CC(C)[C@H](NC(=O)[C@H](CCCN=C(N)N)NC(=O)[C@@H](N)CO)C(=O)N[C@@H](Cc1ccc(O)cc1)C(=O)N[C@H](C(=O)N[C@@H](Cc1c[nH]cn1)C(=O)N1CCC[C@H]1C(=O)N[C@@H](Cc1ccccc1)C(=O)O)C(C)C (H-SRVYVHPF-OH) ?
A. 22.4

Q. Reported RA for Type-1 angiotensin II receptor (Oryctolagus cuniculus), given CC(=O)N[C@@H](CO)C(=O)N[C@@H](CCCN=C(N)N)C(=O)N[C@H](C(=O)N[C@@H](Cc1ccc(O)cc1)C(=O)N[C@H](C(=O)N[C@@H](Cc1c[nH]cn1)C(=O)N1CCC[C@H]1C(=O)N[C@@H](Cc1ccccc1)C(=O)O)C(C)C)C(C)C (Ac-SRVYVHPF-OH) ?
A. 16.2

Q. Reported RA for Type-1 angiotensin II receptor (Oryctolagus cuniculus), given CCCCCCCCCCCCCCCC(=O)OCCC(=O)N[C@@H](CCCN=C(N)N)C(=O)N[C@H](C(=O)N[C@@H](Cc1ccc(O)cc1)C(=O)N[C@H](C(=O)N[C@@H](Cc1c[nH]cn1)C(=O)N1CCC[C@H]1C(=O)N[C@@H](Cc1ccccc1)C(=O)O)C(C)C)C(C)C (X1-RVYVHPF-OH) ?
A. 0.13

Q. Reported RA for Type-1 angiotensin II receptor (Oryctolagus cuniculus), given CC[C@H](C)[C@H](NC(=O)[C@H](Cc1ccc(O)cc1)NC(=O)[C@@H](NC(=O)[C@H](CCCNC(=N)N)NC(=O)[C@@H](N)CC(=O)O)C(C)C)C(=O)N[C@@H](Cc1cnc[nH]1)C(=O)N1CCC[C@H]1C(=O)N[C@@H](Cc1ccccc1)C(=O)O [ANGIOTENSIN II] ?
A. 100
